So I've got a bunch of molecules here, and I need their Ki values.
target: Carbonic anhydrase 9 (Homo sapiens, UniProt Q16790); experiment: Binding affinity to recombinant human carbonic anhydrase 9 after 15 mins by stopped-flow CO2 hydration assay
Give the quantity in nM, number only.

Q: Please report the measured Ki for NS(=O)(=O)c1ccc(CCNc2n[n+]([O-])c3cc4c(cc3[n+]2[O-])CCC4)cc1
A: 307

Q: Please report the measured Ki for NS(=O)(=O)c1ccc(CCNC(=O)CCCc2ccc(N(CCCl)CCCl)cc2)cc1
A: 4610

Q: Please report the measured Ki for NS(=O)(=O)c1ccc(NC(=O)OCCCCc2ccc(N(CCCl)CCCl)cc2)cc1
A: 2740

Q: Please report the measured Ki for Cn1nnc2c(C(=O)NCCc3ccc(S(N)(=O)=O)cc3)ncn2c1=O
A: 37.1

Q: Please report the measured Ki for NS(=O)(=O)c1ccc(CCNc2n[n+]([O-])c3ccccc3[n+]2[O-])cc1
A: 383
